- ASSAY SYSTEM: MDMX (Homo sapiens, UniProt O15151)
- Sequence (O15151 1-125): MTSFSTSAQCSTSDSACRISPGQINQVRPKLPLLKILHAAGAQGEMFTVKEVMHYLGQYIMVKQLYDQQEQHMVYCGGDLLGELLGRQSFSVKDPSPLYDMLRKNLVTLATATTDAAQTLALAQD
- METHOD DESCRIPTION: Competitive fluorescence polarization assay for MDMX
- Format: binding
- SETTINGS: competitive FP assay, read-out: IC50 (MDMX)
Where a SMILES comes first, the peptide text is derived from it. Bridges are numbered along the chain shown (N, C = ends). [ ]: non-standard residue; d: D form. R8 = C=CCCCCCC[C@@](C)(N)C(=O)O; Cba = N[C@@H](CC1CCC1)C(=O)O; S5 = C=CCCC[C@](C)(N)C(=O)O; Nle = CCCC[C@H](N)C(=O)O
Below, each entry is listed alongside its reported IC50.

• CCCC[C@H](NC(=O)[C@H](C)NC(=O)[C@H](CO)NC(=O)[C@]1(C)CCCC=CCCCCCC[C@@](C)(NC(=O)[C@H](Cc2ccccc2)NC(=O)[C@@H](NC(=O)[C@H](CC(C)C)NC(C)=O)[C@@H](C)O)C(=O)N[C@@H](C)C(=O)N[C@@H](Cc2ccc(O)cc2)C(=O)N[C@@H](Cc2c[nH]c3ccccc23)C(=O)N[C@@H](C)C(=O)N[C@@H](CCC(N)=O)C(=O)N[C@@H](CC(C)C)C(=O)N1)C(N)=O [compound 3] (Ac-LTF[R8]AYWAQL[S5]SA[Nle]-NH2; staple 4-11) = 100 to 1000 nM

Request: Field request: IC50 | item: CC(=O)N[C@@H](CC(C)C)C(=O)N[C@H](C(=O)N[C@@H](Cc1ccccc1)C(=O)N[C@]1(C)CCCCCCC=CCCC[C@@](C)(C(=O)N[C@@H](CO)C(=O)N[C@@H](C)C(=O)N[C@@H](Cc2ccccc2)C(N)=O)NC(=O)[C@H](CC2CCC2)NC(=O)[C@H](CCC(N)=O)NC(=O)[C@H](C)NC(=O)[C@H](Cc2c[nH]c3ccccc23)NC(=O)[C@H](Cc2ccc(O)cc2)NC(=O)[C@H](CCC(=O)O)NC1=O)[C@@H](C)O [compound 256] (Ac-LTF[R8]EYWAQ[Cba][S5]SAF-NH2; staple 4-11)
Result: 10 to 100 nM

* * *

- ASSAY SYSTEM: MDM2 (Homo sapiens, UniProt Q00987)
- Sequence (Q00987 1-125): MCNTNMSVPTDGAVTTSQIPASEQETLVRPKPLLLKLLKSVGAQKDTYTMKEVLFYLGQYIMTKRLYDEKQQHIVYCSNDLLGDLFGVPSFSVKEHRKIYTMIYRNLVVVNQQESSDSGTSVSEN
- METHOD DESCRIPTION: Competitive fluorescence polarization assay for MDM2
- Assay type: binding
- SETTINGS: competitive FP assay, MDM2; read-out: IC50 (MDM2)
Where a SMILES comes first, the peptide text is derived from it. Bridges are numbered along the chain shown (N, C = ends). [ ]: non-standard residue; d: D form. R8 = C=CCCCCCC[C@@](C)(N)C(=O)O; S5 = C=CCCC[C@](C)(N)C(=O)O; Nle = CCCC[C@H](N)C(=O)O
Below, each entry is listed alongside its reported IC50.

Request: Field request: IC50 | item: CCCC[C@H](NC(=O)[C@H](Cc1c[nH]cn1)NC(=O)[C@H](Cc1c[nH]cn1)NC(=O)[C@]1(C)CCCC=CCCCCCC[C@@](C)(NC(=O)[C@H](Cc2ccccc2)NC(C)=O)C(=O)N[C@@H](C)C(=O)N[C@@H](Cc2ccc(O)cc2)C(=O)N[C@@H](Cc2c[nH]c3ccccc23)C(=O)N[C@@H](C)C(=O)N[C@@H](CCC(N)=O)C(=O)N[C@@H](CC(C)C)C(=O)N1)C(=O)N[C@@H](CC(C)C)C(N)=O [compound 38] (Ac-F[R8]AYWAQL[S5]HH[Nle]L-NH2; staple 2-9)
Result: > 1000 nM

Request: Now the same for CCCC[C@H](NC(=O)[C@H](C)NC(=O)[C@H](C)NC(=O)[C@]1(C)CCCC=CCCCCCC[C@@](C)(NC(=O)[C@H](Cc2ccccc2)NC(=O)[C@@H](NC(=O)[C@H](CC(C)C)NC(=O)[C@H](C)NC(C)=O)[C@@H](C)O)C(=O)N[C@@H](C)C(=O)N[C@@H](Cc2ccc(O)cc2)C(=O)N[C@@H](Cc2c[nH]c3ccccc23)C(=O)N[C@@H](C)C(=O)N[C@@H](CCC(N)=O)C(=O)N[C@@H](CC(C)C)C(=O)N1)C(=O)N[C@@H](C)C(=O)N[C@@H](C)C(N)=O
Result: 10 to 100 nM
